experiment: Solubility screening of veldoreotide acetate (10 mg, incremental volumes of medium, USP definition); format: physicochemical; settings: 0.9N HCl, 10 mg in 0.9N HCL; read-out: 0.5 ml Soluble (0.02 g/ml; 20 mg/ml)
recorded_endpoint: solubility

Would you mind telling me what solubility value was observed for C[C@@H](O)[C@@H]1NC(=O)[C@H](CCCCN)NC(=O)[C@@H](Cc2c[nH]c3ccccc23)NC(=O)[C@H](Cc2c[nH]c3ccccc23)NC(=O)[C@H](Cc2ccccc2)NC(=O)CCCNC(=O)CCCN(CC(N)=O)C(=O)[C@H](Cc2ccccc2)NC1=O [Veldoreotide Acetate] ?
< 20 mg/mL

====

test: Solubility screening of veldoreotide acetate (10 mg, incremental volumes of medium, USP definition); type: physicochemical; settings: water for injection (WFI-USP), 10 ml Slightly soluble (0.001 g/ml; 1 mg/ml), 10 mg in WFI-USP (water for injection)
recorded_endpoint: solubility

Tell me the measured solubility of C[C@@H](O)[C@@H]1NC(=O)[C@H](CCCCN)NC(=O)[C@@H](Cc2c[nH]c3ccccc23)NC(=O)[C@H](Cc2c[nH]c3ccccc23)NC(=O)[C@H](Cc2ccccc2)NC(=O)CCCNC(=O)CCCN(CC(N)=O)C(=O)[C@H](Cc2ccccc2)NC1=O [Veldoreotide Acetate] , please.
> 1000 µg/mL

====

test: Solubility screening of veldoreotide acetate (10 mg, incremental volumes of medium, USP definition); format: physicochemical; settings: Lactic acid 37 mM, Mannitol 250 mM, pH 4.3, 0.1 ml Freely soluble (0.1 g/ml), 10 mg in Lactic acid 37 mM, Mannitol 250 mM (pH 4.3)
recorded_endpoint: solubility

Would you kindly share the measured solubility for C[C@@H](O)[C@@H]1NC(=O)[C@H](CCCCN)NC(=O)[C@@H](Cc2c[nH]c3ccccc23)NC(=O)[C@H](Cc2c[nH]c3ccccc23)NC(=O)[C@H](Cc2ccccc2)NC(=O)CCCNC(=O)CCCN(CC(N)=O)C(=O)[C@H](Cc2ccccc2)NC1=O [Veldoreotide Acetate] ?
> 100 mg/mL

====

experiment: Solubility screening of veldoreotide acetate (10 mg, incremental volumes of medium, USP definition); format: physicochemical; conditions: refined vegetable oils (olive, cotton, coconut, canola), 10 mg in Refined vegetable oils; Olive, Cotton, Coconut, Canola; read-out: 1 ml Sparingly soluble (0.01 g/ml; 10 mg/ml)
recorded_endpoint: solubility

Would you mind telling me what solubility value was observed for C[C@@H](O)[C@@H]1NC(=O)[C@H](CCCCN)NC(=O)[C@@H](Cc2c[nH]c3ccccc23)NC(=O)[C@H](Cc2c[nH]c3ccccc23)NC(=O)[C@H](Cc2ccccc2)NC(=O)CCCNC(=O)CCCN(CC(N)=O)C(=O)[C@H](Cc2ccccc2)NC1=O [Veldoreotide Acetate] ?
< 10000 µg/mL

====

assay: Solubility screening of veldoreotide acetate (10 mg, incremental volumes of medium, USP definition); type: physicochemical; details: 10% EtOH (95%) in olive oil (or cottonseed oil), 10 mg in 10% EtOH (95%) in olive oil (or cottonseed oil); read-out: 0.5 ml Soluble (0.02 g/ml; 20 mg/ml)
recorded_endpoint: solubility

Quick one: solubility for C[C@@H](O)[C@@H]1NC(=O)[C@H](CCCCN)NC(=O)[C@@H](Cc2c[nH]c3ccccc23)NC(=O)[C@H](Cc2c[nH]c3ccccc23)NC(=O)[C@H](Cc2ccccc2)NC(=O)CCCNC(=O)CCCN(CC(N)=O)C(=O)[C@H](Cc2ccccc2)NC1=O [Veldoreotide Acetate] ?
< 20 mg/mL
